Experiment: Selectivity ratio of Kd for recombinant human N-terminal TEV cleavage site-fused-His6-tagged MTAP expressed in Escherichia coli BL21-CodonPlus(DE3)-RIPL competent cells to Kd for recombinant Helicobacter pylori MTAN expressed in Escherichia coli BL21(DE3)
REPORTED_METRIC: Selectivity ratio

> print(dat)
                             compound.smiles  endpoint.result
 1  CSC[C@H]1CN(Cc2[nH]nc3c(N)ncnc23)C[C@@H]1O             80.9
 2  C=CCn1cc(CCCSC[C@H]2CN(Cc3c[nH]c4c(N)ncnc34)C[C@@H]2O)nn1             92.3
 3  Nc1ncnc2c(CN3C[C@H](CSCCCc4cn(Cc5ccccc5)nn4)[C@@H](O)C3)c[nH]c12             38.9
 4  Nc1ncnc2c(CN3C[C@H](CSc4ncccn4)[C@@H](O)C3)c[nH]c12              224
 5  CCCCn1cc(CSC[C@H]2CN(Cc3c[nH]c4c(N)ncnc34)C[C@@H]2O)nn1             99.2
 6  CSC[C@H]1CN(Cc2c[nH]c3c(N)nccc23)C[C@@H]1O              3.1
 7  Cn1cc(CCCSC[C@H]2CN(Cc3c[nH]c4c(N)ncnc34)C[C@@H]2O)nn1              120
 8  Cn1cc(CSC[C@H]2CN(Cc3c[nH]c4c(N)ncnc34)C[C@@H]2O)nn1              241
 9  C#CCCCSC[C@H]1CN(Cc2c[nH]c3c(N)ncnc23)C[C@@H]1O             36.2
10  Nc1ncnc2c(CN3C[C@H](CSCc4cn(Cc5ccccc5)nn4)[C@@H](O)C3)c[nH]c12              178
11  C=CCn1cc(CSC[C@H]2CN(Cc3c[nH]c4c(N)ncnc34)C[C@@H]2O)nn1              243
12  CCCCn1cc(CCCSC[C@H]2CN(Cc3c[nH]c4c(N)ncnc34)C[C@@H]2O)nn1             46.4
13  C#CCSC[C@H]1CN(Cc2c[nH]c3c(N)ncnc23)C[C@@H]1O             11.5
